molecular target: RORγ (UniProt P51449); assay: RORγ Gal4 Reporter Gene Assay in 293T cells (firefly and renilla luciferase); format: cell-based, human; conditions: second value of the cell; Gal4 reporter gene assay in 293T cells, firefly luciferase
Recorded Endpoint: pIC50 (FF)

>  <Molecule>
Cc1c(C(=O)NCC(C)(C)O)cc(-c2ccc(S(=O)(=O)NC(C)(C)C)c3ccccc23)n1CC1CCC(F)(F)CC1 [17/278]

>  <Number>
7.0

$$$$
>  <Molecule>
Cc1c(C(=O)NC2CCOCC2)cc(-c2ccc(S(=O)(=O)NC(C)(C)C)c(C(F)F)c2)n1CC1CCC1 [17/126]

>  <Number>
6.7

$$$$
>  <Molecule>
CCC(C)(C)NS(=O)(=O)c1ccc(-c2cc(C(=O)NC3COC3)c(C)n2CC2CCCCC2)cc1C(C)(C)C [9/7]

>  <Number>
7.5

$$$$
>  <Molecule>
Cc1c(C(=O)NCC(C)(C)NC(=O)CC2SC(=O)NC2=O)cc(-c2cc(C(C)(C)C)c3c(c2)C2(CCO3)CC2)n1CC1CCCCC1 (centres unmarked) [17/35]

>  <Number>
6.4

$$$$
>  <Molecule>
Cc1c(C(=O)NCCC(C)(C)C(=O)O)cc(-c2cc(C(=O)NC(C)(C)C)cc(C3(C)CC3)c2)n1CC1CCCCC1 [17/340]

>  <Number>
7.1

$$$$
>  <Molecule>
Cc1c(C(=O)NCC(C)(C)C(=O)O)cc(-c2cc(C(=O)NC(C)(C)C)cc(C3(C)CC3)c2)n1CC1CCCCC1 [17/338]

>  <Number>
7.2

$$$$
>  <Molecule>
Cc1c(C(=O)NC2CCOCC2)cc(-c2ccc(NS(=O)(=O)C(C)(C)C)c(C(F)(F)F)c2)n1CC1CCCCC1 [17/247]

>  <Number>
6.9

$$$$
>  <Molecule>
Cc1c(C(=O)NC2CCOCC2)cc(-c2ccc(S(=O)(=O)NC(C)(C)C)c(C(F)(F)F)c2)n1CC1CC(F)(F)C1 [17/133]

>  <Number>
6.3

$$$$
>  <Molecule>
Cc1c(C(=O)NCCc2noc(=O)[nH]2)cc(-c2ccc(S(=O)(=O)NC(C)(C)C)c(C(C)(C)C)c2)n1CC1CCCCC1 [17/331]

>  <Number>
6.6

$$$$
>  <Molecule>
Cc1c(C(=O)NCCS(C)(=O)=O)cc(-c2cc(C(C)(C)C)cc(C(C)(C)C)c2)n1CC1CCCCC1 [1/1]

>  <Number>
6.6

$$$$
>  <Molecule>
Cc1c(C(=O)NCC(C)(C)c2noc(=O)[nH]2)cc(-c2cc(C(C)(C)O)cc(C3(C)CC3)c2)n1CC1CCCCC1 [17/310]

>  <Number>
7.4

$$$$
>  <Molecule>
Cc1c(C(=O)NCC2(O)CCOCC2)cc(-c2ccc(S(=O)(=O)NC(C)(C)C)c3ccccc23)n1CC1CCC1 [17/243]

>  <Number>
7.4

$$$$
>  <Molecule>
Cc1c(C(=O)NC2COC2)cc(-c2cc(C(F)(F)F)c3c(c2)C2(CCO3)CC2)n1CC1CCCCC1 [1/132]

>  <Number>
6.8

$$$$
>  <Molecule>
Cc1c(C(=O)NCCC(C)(C)C(=O)O)cc(-c2ccc(S(=O)(=O)NC(C)(C)C)c(C(F)(F)F)c2Cl)n1CC1CCCCC1 [17/289]

>  <Number>
7.1

$$$$
